- Target: T1, human CD47-Fc fusion protein (R&D systems) (human, UniProt Q08722 19-141)
- T1 construct: Bought (R&D systems); also called Fc-tagged CD47; not shown: Fc part of the bought fusion protein
- Test Method Notes: ELISA, binding to CD47
- Set-up: unit not given here
Experimental Readout: Bmax
Number only, please.

As a guide, the following entries are already answered.
Binder	Recorded Measurement
15D3/5F9 (15D3 heavy chain with 5F9 light chain) (antibody, human IgG1, V domains shown, Light chain shuffle construct; human IgG1 / kappa constant regions) VH: EVKVVESGGVLVRPGGSLKLSCAASGFTFSRYTMSWVRQTPEKRLEWVATISSGGGNTYYPDSVKGRFTVSRDNAMSSLYLQMSSLRSEDTALYYCARYGAGDAWFAYWGQGTLVTVSA VL: DIVMTQSPLSLPVTPGEPASISCRSSQSIVYSNGNTYLGWYLQKPGQSPQLLIYKVSNRFSGVPDRFSGSGSGTDFTLKISRVEADVGVYYCFQGSHVPYTFGQGTKLEIK	3.1
anti-MDR1 antibody 15D3 (recombinant, human IgG1/Kappa) (antibody, V domains shown, also called 15D3/15D3) VH: EVKVVESGGVLVRPGGSLKLSCAASGFTFSRYTMSWVRQTPEKRLEWVATISSGGGNTYYPDSVKGRFTVSRDNAMSSLYLQMSSLRSEDTALYYCARYGAGDAWFAYWGQGTLVTVSA VL: DVLMTQTPLSLPVSLGDQASISCRSSQSIVHSTGNTYLEWYLQKPGQSPKLLIYKVSNRFSGVPDRFSGSGSGTDFTLKISRLEAEDLGVYYCFQGSHFPRTFGGGTRLEIK	3.2

Here is the next item to consider.
Return value of Bmax for input 15D3/MRK16 (anti-MDR1 antibody with two 15D3 heavy chains and two MRK16 light chains) (antibody, human IgG1, V domains shown, Human IgG1 / kappa constant regions; also called 15D3/MRK16 monoclonal; a15D3:MRK16 antibody) VH: EVKVVESGGVLVRPGGSLKLSCAASGFTFSRYTMSWVRQTPEKRLEWVATISSGGGNTYYPDSVKGRFTVSRDNAMSSLYLQMSSLRSEDTALYYCARYGAGDAWFAYWGQGTLVTVSA VL: DVLMTQTPVSLSVSLGDQASISCRSSQSIVHSTGNTYLEWYLQKPGQSPKLLIYKISNRFSGVPDRFSGSGSGTDFTLKISRVEAEDLGVYYCFQASHFPRTFGGGTKLEIK , no commentary.
3.94

Every entry's value here was drawn from patent US20220204627A1.
